IC50 for assorted sequences
target: recombinant HLA-DR401 (HLA-DRA1*01:01, HLA-DRB1*04:01) (Homo sapiens, UniProt P01903+P01911, A100K/A169T/F76Y/I96L/K127E/L162R/M171V/N62H/P40V/Q125Y/R42H/S133A/S149N/S66Y/V115G/V209L/W38E); construct: poly-histidine (C); made in house; host or cells: High Five (Hi5) insect cells, baculovirus (pAcGP67a); experiment: biochemical; assay type: binding; conditions: fluorescence polarization peptide competition, HLA-DR401; sheet Fig7; read-out: Measured IC50
Ends that are not written are not given here.
Entry rule: numbers only, all in nM.

residues	IC50 / nM
PIPVIFHRIATELRKTNDIN	698
ESSISDKNYWKTVSNAFSVI	24.7
PIPVIFHRIATELSKTNDIN	42.1
WRAPSYILSPELTQRLFSAA	248
LLPVKQSVVPLAKGTLITHC	307

Record "MKRRPVWTDINPKAVTNDEL" , field IC50: 21

Record "YVGDMLAWLHQSTASEKEHL" , field IC50: 406

Record "VYGWATLVSERSKNGMQRIL" , field IC50: 245

Record "RKDLIVMLMDTDVNKQDKQK" , field IC50: 3170

Record "ASDSSYRNECPMAEKEDTQM" , field IC50: 47.4

Record "FVGNIAEDLCLDITKLSARG" , field IC50: 86

Record "VYGWATLVSERSNNGMQRIL" , field IC50: 94
